growth inhibition values by entry
- test.summary: NCI Yeast Anticancer Drug Screen. Data for the cln2 rad14 strain (AID 165);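 note: 0% = growth equal to vehicle treated cultures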
- test.settings: S. cerevisiae cln2 rad14 strain, at 50.0 µM, active compounds read high
- Experimental: Growth inhibition of yeast strains with defined genetic alterations is measured as a screen for potential anti-cancer activity. Selected strains with alterations in DNA damage repair or cell cycle control were exposed to compounds and growth inhibition was measured relative to vehicle treated controls. The strain used in this assay is cln2 rad14
The panel holds about 79,000 compounds, 15% with a hit somewhere; the sample as a whole holds those more often. The source made the active and inactive calls. Cut-off read from the data, not from the text of the source: active = growth inhibition above about 70%; inactive = the rest.

# example entries with known answers
> print(dat)
                                compound       result.value
1      COc1ccc2c(=O)cc(-c3ccncc3)oc2c1OC    2.3% (inactive)
2  COC(=O)/C=C/c1cc(=O)n2c(nc3ccccc32)s1  -35.2% (inactive)

# input compound: "COc1cccc(C=Nc2ccc(N(C)C)cc2)c1O.COc1cccc(C=Nc2ccc(N(C)C)cc2)c1O.[Co]" ; wanted: its growth inhibition
2.9% (inactive)

# growth inhibition lookup, item "C=C(C)CNC(=S)N(N)c1ccc(OC)cc1"
-2.2% (inactive)

Could you tell me which growth inhibition is on file for CC(NNC(=S)N1CCC(c2ccccc2)CC1)c1ccc2ccccc2n1 (stereo unspecified) ?
11.5% (inactive)

Given the entry "S=C(NCc1ccc(Cl)c(Cl)c1)Nc1ccccc1" , report its measured growth inhibition.
98.2% (active)

The measured values listed here are drawn from PubChem BioAssay (NCI).
